Source listed as patent US4490388A.

Entries with their measured IC50, system UniProtKB P00735:

Guide cases for IC50, answers given:
>>> observed_value("N=C(N)C=Cc1ccc(OC(=O)c2ccc(NC(=N)N)cc2)cc1")
"1 µM"
>>> observed_value("N=C(N)C=Cc1ccc(OC(=O)CCCCCN)cc1")
"> 10 µM"
>>> observed_value("N=C(N)C=Cc1ccc(OC(=O)C=Cc2cccc(C(F)(F)F)c2)cc1")
"> 10 µM"
>>> observed_value("N=C(N)C=Cc1ccc(OC(=O)c2ccc(OCc3ccccc3)cc2)cc1")
"> 10 µM"
>>> observed_value("CCC(=Cc1ccc(NC(=N)N)cc1)C(=O)Oc1ccc(C=CC(=N)N)cc1")
"5 µM"

Field IC50 (system: UniProtKB P00735) for entry Cc1ccc(C(=O)Oc2ccc(C=CC(=N)N)cc2)cc1 = > 10 µM

Observed IC50, UniProtKB P00735, N=C(N)C=Cc1ccc(OC(=O)Cc2ccccc2)cc1 [Compound 13, 4-(β-amidinoethenyl)phenyl phenylacetate] : 5 µM

# value of IC50, UniProtKB P00735, item N=C(N)C=Cc1ccc(OC(=O)CCCCCNC(=N)N)cc1 = > 10 µM

Reading of IC50 for N=C(N)C=Cc1ccc(OC(=O)[C@H]2CC[C@H](CN)CC2)cc1 with UniProtKB P00735: > 10 µM
